tested on: U2OS; assay: Here: values are normalized to the negative (DMSO; defined as 0% autophagy induction) and positive (250nM Torin1; mTOR inhibitor; defined as maximal inducer of autophagy = 100%) control compounds and represented as % of autophagy induction. […] The impact of autophagy induction on cells is complex and depends on the affected target. As such, the magnitude of a phenotype may not be equally mirrored in the %-value of autophagy induction and vice versa. The dynamics of the induction may indicate the mode of activation: e.g. activation via phosphorylation or a signaling cascade may occur fast, while activation via transcription factors may take considerably longer. […] Of note, treatment concentrations may be sub-optimal for specific compounds, leading to false negative annotations.; type: functional, Homo sapiens; settings: Compound Concentration 2 uM, Timepoint 36 hours, Culturing Media DMEM, 1 % Penicillin/Streptomycin, 10% Fetal bovin serum Add-On: No, Screening Media Control DMEM, Screening Media Samples DMEM
TEST READOUT: autophagy induction (%)
Give just the numeric value; % need not be written.

Example cases with answers are listed next.
>>> recorded_value("COC1CCN(c2cccc(-c3cc(NC(C)=O)nc(-n4nc(C)cc4C)n3)n2)CC1")
-0.07864
>>> recorded_value("Cc1c(C2=CCN(C(=O)N(C)C(C)C)CC2)nnn1-c1cccnc1F")
-0.7182
>>> recorded_value("N#Cc1c(N)nc(SCC(N)=O)c(C#N)c1-c1ccc(OCC2CC2)cc1")
-0.4866

Q: Can you share its autophagy induction? I mean this compound: C[C@H](CO)Nc1nc(SCc2cccc(Cl)c2F)nc2[nH]c(=O)sc12
Ans: -2.19

----------
tested on: U2OS; experiment: Here: values are normalized to the negative (DMSO; defined as 0% autophagy induction) and positive (250nM Torin1; mTOR inhibitor; defined as maximal inducer of autophagy = 100%) control compounds and represented as % of autophagy induction. […] The impact of autophagy induction on cells is complex and depends on the affected target. As such, the magnitude of a phenotype may not be equally mirrored in the %-value of autophagy induction and vice versa. The dynamics of the induction may indicate the mode of activation: e.g. activation via phosphorylation or a signaling cascade may occur fast, while activation via transcription factors may take considerably longer. […] Of note, treatment concentrations may be sub-optimal for specific compounds, leading to false negative annotations.; assay type: functional, Homo sapiens; settings: Compound Concentration 0.5 uM, Timepoint 60 hours, Culturing Media DMEM, 1 % Penicillin/Streptomycin, 10% Fetal bovin serum Add-On: No, Screening Media Control DMEM, Screening Media Samples DMEM
Below, each entry is listed with its recorded autophagy induction.
Give just the numeric value; % need not be written.

Example cases with answers are listed next.
>>> recorded_value("Cl.Clc1ccc(CCCOCCCN2CCCCC2)cc1 [PITOLISANT HYDROCHLORIDE]")
0.1501
>>> recorded_value("CC(C)NCC(O)c1ccc(N)c(C#N)c1 (stereo not given)")
-4.997

Q: Entry Cc1c(C2=CCN(C(=O)N(C)C(C)C)CC2)nnn1-c1cccnc1F , system U2OS: what autophagy induction was measured?
Ans: 23.6658

----------
tested on: TERT-RPE1; assay: Here: values are normalized to the negative (DMSO; defined as 0% autophagy induction) and positive (250nM Torin1; mTOR inhibitor; defined as maximal inducer of autophagy = 100%) control compounds and represented as % of autophagy induction. […] The impact of autophagy induction on cells is complex and depends on the affected target. As such, the magnitude of a phenotype may not be equally mirrored in the %-value of autophagy induction and vice versa. The dynamics of the induction may indicate the mode of activation: e.g. activation via phosphorylation or a signaling cascade may occur fast, while activation via transcription factors may take considerably longer. […] Of note, treatment concentrations may be sub-optimal for specific compounds, leading to false negative annotations.; format: functional, Homo sapiens; details: Compound Concentration 1 uM, Timepoint 60 hours, Culturing Media DMEM/F12 (1:1), 1 % Penicillin/Streptomycin, 10% Fetal bovin serum Add-On: No, Screening Media Control DMEM/F12 (1:1), Screening Media Samples DMEM/F12 (1:1)
Below, each entry is listed with its recorded autophagy induction.
Give just the numeric value; % need not be written.

>>> recorded_value("CC[C@H]1[C@@H](O)[C@@H]2[C@H](CC[C@]3(C)[C@@H]([C@H](C)CCC(=O)O)CC[C@@H]23)[C@@]2(C)CC[C@@H](O)C[C@@H]12")
2.71
>>> recorded_value("CN(CCOc1ccc(C[C@H](Nc2ccccc2C(=O)c2ccccc2)C(=O)O)cc1)c1ccccn1.O")
-9.85
>>> recorded_value("CCCCc1oc2ccccc2c1C(=O)c1cc(I)c(OCCN(CC)CC)c(I)c1.Cl [AMIODARONE HYDROCHLORIDE]")
-20.4662

Q: Can you share its autophagy induction? I mean this compound: CC(C)(C[C@H]1CN(S(=O)(=O)c2cccc(C(F)(F)F)c2)c2cc(-c3cc(F)cc(OC(F)F)c3)ccc2O1)C(=O)O
Ans: -18.8569

Q: Can you share its autophagy induction? I mean this compound: CCCc1c(OCCCOc2ccc(OCC(=O)O)cc2)ccc(C(C)=O)c1O
Ans: -8.413

Q: Can you share its autophagy induction? I mean this compound: Cn1cc(C(=O)O)c2ccc(N3CCC(OCc4c(-c5c(Cl)cccc5Cl)noc4C4CC4)CC3)cc21
Ans: 3.921

Q: Can you share its autophagy induction? I mean this compound: Cc1cc(SCc2sc(-c3ccc(C(F)(F)F)cc3)nc2C)ccc1OCC(=O)O
Ans: -19.4944

Data origin: ChEMBL document CHEMBL5724696
